System: HCI-012 (organoid from a breast cancer xenograft)
Assay: CTG-3D luminescence at 96 h relative to day-0 seeding control (ratio to day 0); higher = more growth / less cytotoxicity; PDxO 3D drug screen, 96 h, CTG-3D normalised to day-0 seeding control.
Conditions: 10 µM; days in culture: 143
Reported CTG-3D luminescence at 96 h values are given for each entry in this list.
testReadout: CTG-3D luminescence at 96 h

- smilesInput: "Nc1ccn([C@@H]2O[C@H](CO)[C@@H](O)C2(F)F)c(=O)n1"
  resultNumber: 0.118
- smilesInput: "COc1cccc2c1C(=O)c1c(O)c3c(c(O)c1C2=O)C[C@@](O)(C(=O)CO)C[C@@H]3O[C@H]1C[C@H](N)[C@H](O)[C@H](C)O1"
  resultNumber: -0.00257
- smilesInput: "CS(=O)(=O)c1ccc(C(=O)Nc2ccc(Cl)c(-c3ccccn3)c2)c(Cl)c1"
  resultNumber: 2.55
- smilesInput: "C=CC(=O)N1CCC[C@@H](n2nc(-c3ccc(Oc4ccccc4)cc3)c3c(N)ncnc32)C1"
  resultNumber: 1.12

* * *

Reported CTG-3D luminescence at 96 h values are given for each entry in this list.
Test system: HCI-015 (organoid from a triple-negative breast cancer xenograft)
Assay: CTG-3D luminescence at 96 h relative to day-0 seeding control (ratio to day 0); higher = more growth / less cytotoxicity; PDxO 3D drug screen (set 2), 96 h, CTG-3D normalised to day-0 seeding control.
Settings: 10 µM; days in culture: 333

- smilesInput: "Nc1cc(C(F)(F)F)c(-c2cc(N3CCOCC3)nc(N3CCOCC3)n2)cn1"
  assaySystem: "HCI-015"
  CTG-3D luminescence at 96 h: 0.204
- smilesInput: "CS(=O)(=O)CCNCc1ccc(-c2ccc3ncnc(Nc4ccc(OCc5cccc(F)c5)c(Cl)c4)c3c2)o1"
  assaySystem: "HCI-015"
  CTG-3D luminescence at 96 h: 0.251
- smilesInput: "CC(=O)O[C@@]12CO[C@@H]1C[C@H](O)[C@@]1(C)C(=O)[C@H](O)C3=C(C)[C@@H](OC(=O)[C@H](O)[C@@H](NC(=O)OC(C)(C)C)c4ccccc4)C[C@@](O)([C@@H](OC(=O)c4ccccc4)[C@H]21)C3(C)C"
  assaySystem: "HCI-015"
  CTG-3D luminescence at 96 h: 0.304
- smilesInput: "Cc1c(CN2CCN(C(=O)[C@H](C)O)CC2)sc2c(N3CCOCC3)nc(-c3cnc(N)nc3)nc12"
  assaySystem: "HCI-015"
  CTG-3D luminescence at 96 h: 0.445
- smilesInput: "CO[C@H]1C[C@@H]2CC[C@@H](C)[C@@](O)(O2)C(=O)C(=O)N2CCCC[C@H]2C(=O)O[C@H]([C@H](C)C[C@@H]2CC[C@@H](O)[C@H](OC)C2)CC(=O)[C@H](C)/C=C(\\C)[C@@H](O)[C@@H](OC)C(=O)[C@H](C)C[C@H](C)/C=C/C=C/C=C/1C"
  assaySystem: "HCI-015"
  CTG-3D luminescence at 96 h: 0.447
- smilesInput: "CC(C)n1nc(-c2ccc3oc(N)nc3c2)c2c(N)ncnc21"
  assaySystem: "HCI-015"
  CTG-3D luminescence at 96 h: 0.114
- smilesInput: "CC(=O)c1c(C)c2cnc(Nc3ccc(N4CCNCC4)cn3)nc2n(C2CCCC2)c1=O"
  assaySystem: "HCI-015"
  CTG-3D luminescence at 96 h: 0.44

src = the supplement of paper PMC8882468
